Hey, just so you know, these numbers are from patent US20250051375A1.

assay_protocol: Intestinal S9 Assay (dog GI S9)
Format: in vitro ADME
condition_parameters: 2 μM, 1.0 mg/mL S9 protein, TRIS pH 7.4
Description: Reagents. Stock solutions of test compounds in dimethyl sulfoxide (DMSO) having a final concentration of 10 mM were prepared and used in all experiments. Sekisui XenoTech (Kansas City, KS) provided pooled intestinal S9 fractions. All other chemicals were purchased from Sigma-Aldrich (St. Louis, MO) or VWR (West Chester, PA). […] Data Analysis. Metabolic stabilities were determined by measuring the rates of disappearance of test compound and positive control substrate. […]
property_name: Dog GI S9 [Intermediate A] % (%)
All answers are understood in %, so give the number only.

The value of Dog GI S9 [Intermediate A] % measured for the molecule "COC(=O)N[C@H](C(=O)N[C@@H](Cc1ccc(C#Cc2cnc(N3CC4CCC(C3)N4C3COC3)nc2)cc1)[C@H](CN(Cc1c(F)cc(-c2ccn(C(F)F)n2)cc1F)NC(=O)[C@@H](NC(=O)OC)C(C)(C)C(F)(F)F)OC(=O)CC(C)(C)c1c(CC(=O)Nc2cccc(C(=O)O)c2)cc(C)cc1OP(=O)(O)O)C(C)(C)C(F)(F)F" turned out to be 13.8

GET /value?item= "COC(=O)N[C@H](C(=O)N[C@@H](Cc1ccc(C#Cc2cnc(N3CC4CCC(C3)N4C3COC3)nc2)cc1)[C@H](CN(Cc1c(F)cc(-c2ccn(C(F)F)n2)cc1F)NC(=O)[C@@H](NC(=O)OC)C(C)(C)C(F)(F)F)OC(=O)CC(C)(C)c1c(CC(=O)Nc2cc(C(=O)O)cc(C(=O)O)c2)cccc1OP(=O)(O)O)C(C)(C)C(F)(F)F" &field=Dog GI S9 [Intermediate A] % returns 94.7

Summary for this molecule, "COC(=O)N[C@H](C(=O)N[C@@H](Cc1ccc(C#Cc2cnc(N3CC4CCC(C3)N4C3COC3)nc2)cc1)[C@H](CN(Cc1c(F)cc(-c2ccn(C(F)F)n2)cc1F)NC(=O)[C@@H](NC(=O)OC)C(C)(C)C(F)(F)F)OC(=O)CC(C)(C)c1c(CC(=O)N[C@@H](CCC(=O)O)C(=O)O)cccc1OP(=O)(O)O)C(C)(C)C(F)(F)F" : Dog GI S9 [Intermediate A] % is 93.8
